B1: TPR 5TU (parent)
chain: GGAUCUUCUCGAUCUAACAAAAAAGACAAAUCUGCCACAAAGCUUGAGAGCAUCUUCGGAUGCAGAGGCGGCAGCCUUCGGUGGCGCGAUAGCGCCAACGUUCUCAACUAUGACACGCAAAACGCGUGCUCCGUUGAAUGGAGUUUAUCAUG

# Variants of: B1
# testDetails: polymerase ribozyme fitness, log enrichment relative to wild type (log ratio); higher = more active; in vitro selection for triplet polymerase activity
Variants at the floor of the assay were thinned out.
metric: polymerase ribozyme fitness (log ratio)
Answer with a bare number; do not write a unit.

// known answers, use as guide
| mutation | polymerase ribozyme fitness (log ratio) |
| --- | --- |
| A60C C76U C93U | -3.48 |
| G81C G83U G133A | -3.88 |
| U6G G50U C85U C116U G152U | -3.7 |
| A12U U31G A60G G83C | -1.56 |
| G143A | -0.315 |

Data request, read-out polymerase ribozyme fitness (log ratio), for C32G A39G G58U G143C
-4.1

Data request, read-out polymerase ribozyme fitness (log ratio), for A41U C69U C87U
-2.75
